System: HepG2
Procedure Details: Cytotoxicity against human HepG2 cells at 10 uM after 24 hrs by MTT colorimetric assay
Type: cell-based
Test Settings: hepg2, 24 h
Listed compounds paired with reported Activity
Output spec: scalar in %, unitless text.

The cases that follow already have their Activity on record.
Given item `CN(C)C[C@@H]1Cc2ccccc2[C@@]2(C)C[C@]3(C(=O)Nc4cc(N)ccc43)C(=O)N12` , the value recorded as its Activity is 5

Given item `CN(C)C[C@@H]1Cc2ccccc2[C@@]2(C)C[C@]3(C(=O)Nc4ccccc43)C(=O)N12` , the value recorded as its Activity is 1

Given item COC(=O)C1(C(C[N+](=O)[O-])c2ccccc2)C[C@]2(C)c3ccccc3C[C@@H](CO)N2C1=O (mixture of isomers) , the value recorded as its Activity is -3

Given item `C[C@]12CC3(CCCC3)C(=O)N1[C@H](CO)Cc1ccccc12` , the value recorded as its Activity is -15

Given item `CN(C)C[C@@H]1Cc2ccccc2[C@@]2(C)C[C@@]3(C(=O)Nc4ccccc43)C(=O)N12` , the value recorded as its Activity is -4

Given item C[C@]12C[C@]3(C(=O)NCC3c3ccccc3)C(=O)N1[C@H](CO)Cc1ccccc12 (stereo partly drawn) , the value recorded as its Activity is -19

***
Given item `CN(C)C[C@@H]1Cc2ccccc2[C@@]2(C)C[C@@]3(C(=O)Nc4cc(N)ccc43)C(=O)N12` , the value recorded as its Activity is -6

Given item `C[C@]12CC3(CC=CC3)C(=O)N1[C@H](CO)Cc1ccccc12` , the value recorded as its Activity is -24

====

Test system: HepG2
Procedure Details: Cytotoxicity against human HepG2 cells at 100 uM after 24 hrs by MTT colorimetric assay
Type: cell-based
Test Settings: hepg2, 24 h
Parameter Measured: Activity (%)
Output spec: scalar in %, unitless text.

The cases that follow already have their Activity on record.
Given item `CN(C)C[C@@H]1Cc2ccccc2[C@@]2(C)C[C@@]3(C(=O)Nc4ccccc43)C(=O)N12` , the value recorded as its Activity is -4

Given item `CN(C)C[C@@H]1Cc2ccccc2[C@@]2(C)C[C@@]3(C(=O)Nc4cc(N)ccc43)C(=O)N12` , the value recorded as its Activity is -39

Given item `CN(C)C[C@@H]1Cc2ccccc2[C@@]2(C)C[C@]3(C(=O)Nc4ccccc43)C(=O)N12` , the value recorded as its Activity is -29

Given item `C[C@]12CC3(CC=CC3)C(=O)N1[C@H](CO)Cc1ccccc12` , the value recorded as its Activity is -155

Given item `CN(C)C[C@@H]1Cc2ccccc2[C@@]2(C)C[C@]3(C(=O)Nc4cc(N)ccc43)C(=O)N12` , the value recorded as its Activity is -36

Given item C[C@]12C[C@]3(C(=O)NCC3c3ccccc3)C(=O)N1[C@H](CO)Cc1ccccc12 (stereo partly drawn) , the value recorded as its Activity is -41

Given item `C[C@]12CC3(CCCC3)C(=O)N1[C@H](CO)Cc1ccccc12` , the value recorded as its Activity is 10

Now let's try a different one.
Given item COC(=O)C1(C(C[N+](=O)[O-])c2ccccc2)C[C@]2(C)c3ccccc3C[C@@H](CO)N2C1=O (mixture of isomers) , the value recorded as its Activity is -55

====

Tested on: HepG2
Procedure Details: Cytotoxicity against human HepG2 cells at 1 uM after 24 hrs by MTT colorimetric assay
Assay type: cell-based
Test Settings: hepg2, 24 h
Parameter Measured: Activity (%)
Output spec: scalar in %, unitless text.

The cases that follow already have their Activity on record.
Given item `CN(C)C[C@@H]1Cc2ccccc2[C@@]2(C)C[C@]3(C(=O)Nc4cc(N)ccc43)C(=O)N12` , the value recorded as its Activity is -23

Given item `CN(C)C[C@@H]1Cc2ccccc2[C@@]2(C)C[C@]3(C(=O)Nc4ccccc43)C(=O)N12` , the value recorded as its Activity is -54

Given item `C[C@]12CC3(CC=CC3)C(=O)N1[C@H](CO)Cc1ccccc12` , the value recorded as its Activity is -5

Given item `CN(C)C[C@@H]1Cc2ccccc2[C@@]2(C)C[C@@]3(C(=O)Nc4ccccc43)C(=O)N12` , the value recorded as its Activity is -7

Given item C[C@]12C[C@]3(C(=O)NCC3c3ccccc3)C(=O)N1[C@H](CO)Cc1ccccc12 (stereo partly drawn) , the value recorded as its Activity is -29

***
Given item `C[C@]12CC3(CCCC3)C(=O)N1[C@H](CO)Cc1ccccc12` , the value recorded as its Activity is -63

Given item COC(=O)C1(C(C[N+](=O)[O-])c2ccccc2)C[C@]2(C)c3ccccc3C[C@@H](CO)N2C1=O (mixture of isomers) , the value recorded as its Activity is -45

Given item `CN(C)C[C@@H]1Cc2ccccc2[C@@]2(C)C[C@@]3(C(=O)Nc4cc(N)ccc43)C(=O)N12` , the value recorded as its Activity is -52
